# Target Or System: T1, PHD3 K1620A (UniProt P29375 1609-1659, K1620A)
# T1 sequence: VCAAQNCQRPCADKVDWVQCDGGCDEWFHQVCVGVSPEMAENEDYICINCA
# Assay Notes: FP
Square brackets hold non-standard residues; d marks the D form. Ends that are not written are not given here. Lys(Me3) = C[N+](C)(C)CCCC[C@H](N)C(=O)O; fluorescent label = not defined here
Reported Metric: Kd

Lab note: measured Kd of ART[Lys(Me3)]QTARKS-{fluorescent label} (reading uncertain) [10mer H3K4me3 tracer containing a C-terminal fluorescent label] was 58 nM
